Would you kindly list pKi for each of these compounds?
target: Histamine H3 receptor (Homo sapiens, UniProt Q9Y5N1); assay: Displacement of [3H]-N-alpha-methylhistamine from human H3R expressed in HEK293 cell membranes after 90 mins by liquid scintillation counting method
Sequence (Q9Y5N1 whole entry): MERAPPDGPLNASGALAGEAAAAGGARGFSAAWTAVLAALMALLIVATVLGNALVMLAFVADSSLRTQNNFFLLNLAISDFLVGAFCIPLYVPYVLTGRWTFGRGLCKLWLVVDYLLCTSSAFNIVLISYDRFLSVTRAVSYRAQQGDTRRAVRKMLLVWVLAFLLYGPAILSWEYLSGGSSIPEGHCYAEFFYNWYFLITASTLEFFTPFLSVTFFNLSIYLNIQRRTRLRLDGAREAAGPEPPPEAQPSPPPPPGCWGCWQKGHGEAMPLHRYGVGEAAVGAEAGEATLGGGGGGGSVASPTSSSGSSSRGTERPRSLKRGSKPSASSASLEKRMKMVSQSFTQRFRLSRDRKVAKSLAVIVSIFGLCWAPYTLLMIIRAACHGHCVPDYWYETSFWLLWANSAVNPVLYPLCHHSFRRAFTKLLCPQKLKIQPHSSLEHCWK
Worth noting: pKi values are minus log10 of concentrations stated in mol/L.

pKi in this record for O=C1CCc2ccc(OCCN3CCCC3)cc21 : 5.21

pKi in this record for O=C1/C(=C/c2ccc(OCCCN3CCCCC3)cc2)Cc2ccc(OCc3ccc(Br)cc3)cc21 : 7.49

pKi in this record for COc1ccc2c(c1)C(=O)/C(=C/c1ccc(OCCCN3CCCCC3)cc1)C2 : 7.96

pKi in this record for O=C1/C(=C/c2ccc(OCCCN3CCCCC3)cc2)Cc2cc(OCc3ccc(Br)cc3)ccc21 : 8.19

pKi in this record for O=C1/C(=C/c2ccc(OCCCN3CCCCC3)cc2)Cc2ccccc21 : 8.68

pKi in this record for COc1ccc2c(c1)C/C(=C\c1ccc(OCCCN3CCCCC3)cc1)C2=O : 7.48

pKi in this record for O=C1CCc2cc(OCCN3CCCC3)ccc21 : 6.46

pKi in this record for O=C1/C(=C/c2ccccc2)Cc2ccc(OCCN3CCCCC3)cc21 : 6.16

pKi in this record for O=C1/C(=C/c2ccccc2)Cc2cc(OCCCN3CCCCC3)ccc21 : 8.41

pKi in this record for O=C1CCc2ccc(OCCCN3CCCCC3)cc21 : 6.52
